- Tested on: DMS 114 tumor spheroids, viability % test/control
- run.description: Anticancer human tumor DMS 114 cell line growth inhibition;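 note: spheroids exposed to compounds for 7 days before read-out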;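 for viability, T/C: luminescence used as a proxy for viable cells; 100% = DMSO vehicle control viability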
- assay.conditions: second compound 0.0949 µM; first compound 10 µM; stronger effect = lower value; spheroids with HUVEC and MSC
In this section, each of the molecules is paired with its reported viability, T/C.
reported.metric: viability, T/C (%)

>  <molecule>
CC(C)n1c(=O)n(C)c2cnc3cc(F)c(-c4ccc(OCCCN5CCCCC5)nc4)cc3c21 + CC[C@@]1(O)C(=O)OCc2c1cc1n(c2=O)Cc2cc3c(CN(C)C)c(O)ccc3nc2-1

>  <units.of.measure>
%

>  <meas.value>
7.13

$$$$
>  <molecule>
COc1cc(C)[nH]c(=O)c1CN1CCc2c(Cl)cc(C(OC)C3COC3)c(Cl)c2C1=O (stereo unspecified) + CC[C@@]1(O)C(=O)OCc2c1cc1n(c2=O)Cc2cc3c(CN(C)C)c(O)ccc3nc2-1

>  <units.of.measure>
%

>  <meas.value>
12

$$$$
>  <molecule>
[2H]c1nc(C)nc([2H])c1-c1cc(NC[C@@H](C)c2cccc3c(C(=O)NC)ccnc23)ncn1 + CC[C@@]1(O)C(=O)OCc2c1cc1n(c2=O)Cc2cc3c(CN(C)C)c(O)ccc3nc2-1

>  <units.of.measure>
%

>  <meas.value>
13.7

$$$$
>  <molecule>
CC1COCCN1c1cc(-c2ccnn2C)c2ccnc(-c3ccn[nH]3)c2n1 (stereo unspecified) + CC[C@@]1(O)C(=O)OCc2c1cc1n(c2=O)Cc2cc3c(CN(C)C)c(O)ccc3nc2-1

>  <units.of.measure>
%

>  <meas.value>
7.21

$$$$
>  <molecule>
Cc1cc(C)c(CNC(=O)c2cc(-c3ccc(CN4CCOCC4)cc3)cc3c2cnn3C2CCCC2)c(=O)[nH]1 + CC[C@@]1(O)C(=O)OCc2c1cc1n(c2=O)Cc2cc3c(CN(C)C)c(O)ccc3nc2-1

>  <units.of.measure>
%

>  <meas.value>
15.5

$$$$
>  <molecule>
COc1ccc([C@@H](O)c2cc(-c3ncnc4cc(N5CCOCC5)ccc34)c(F)cc2Cl)nn1 + CC[C@@]1(O)C(=O)OCc2c1cc1n(c2=O)Cc2cc3c(CN(C)C)c(O)ccc3nc2-1

>  <units.of.measure>
%

>  <meas.value>
7.97

$$$$

* * *

- System: DMS 114 tumor spheroids, viability % test/control
- run.description: Anticancer human tumor DMS 114 cell line growth inhibition;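 note: spheroids exposed to compounds for 7 days before read-out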
- assay.conditions: curve of first compound; second compound 10 µM; spheroids with HUVEC and MSC
pIC50: −log10 of the molar value.

>  <molecule>
Cn1ncnc1[C@H]1c2n[nH]c(=O)c3cc(F)cc(c23)N[C@@H]1c1ccc(F)cc1 + Cn1nnc2c(C(N)=O)ncn2c1=O

>  <value.prefix>
=

>  <pIC50>
6.68

$$$$
>  <molecule>
COc1ccc([C@@H](O)c2cc(-c3ncnc4cc(N5CCOCC5)ccc34)c(F)cc2Cl)nn1 + Cn1nnc2c(C(N)=O)ncn2c1=O

>  <value.prefix>
=

>  <pIC50>
5.00

$$$$
>  <molecule>
[2H]c1nc(C)nc([2H])c1-c1cc(NC[C@@H](C)c2cccc3c(C(=O)NC)ccnc23)ncn1 + Cn1nnc2c(C(N)=O)ncn2c1=O

>  <value.prefix>
<

>  <pIC50>
5.00

$$$$
>  <molecule>
CNCc1ccc(-c2cc(-c3nc(-c4ccc(S(=O)(=O)C(C)C)cc4)cnc3N)on2)cc1 + Cn1nnc2c(C(N)=O)ncn2c1=O

>  <value.prefix>
=

>  <pIC50>
6.76

$$$$
>  <molecule>
Cc1cc(C)c(CNC(=O)c2cc(-c3ccc(CN4CCOCC4)cc3)cc3c2cnn3C2CCCC2)c(=O)[nH]1 + Cn1nnc2c(C(N)=O)ncn2c1=O

>  <value.prefix>
<

>  <pIC50>
5.00

$$$$
>  <molecule>
COc1cc(C)[nH]c(=O)c1CN1CCc2c(Cl)cc(C(OC)C3COC3)c(Cl)c2C1=O (configuration not stated) + Cn1nnc2c(C(N)=O)ncn2c1=O

>  <value.prefix>
<

>  <pIC50>
5.00

$$$$
>  <molecule>
CC(C)n1c(=O)n(C)c2cnc3cc(F)c(-c4ccc(OCCCN5CCCCC5)nc4)cc3c21 + Cn1nnc2c(C(N)=O)ncn2c1=O

>  <value.prefix>
=

>  <pIC50>
5.18

$$$$

* * *

The compounds listed here are annotated with their viability, T/C.
- Test system: DMS 114 tumor spheroids, viability % test/control
- run.description: Anticancer human tumor DMS 114 cell line growth inhibition;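 note: spheroids exposed to compounds for 7 days before read-out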;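 for viability, T/C: luminescence used as a proxy for viable cells; 100% = DMSO vehicle control viability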
- assay.conditions: second compound 0.003 µM; first compound 0.949 µM; stronger effect = lower value; spheroids with HUVEC and MSC
reported.metric: viability, T/C (%)

>  <compound>
Cn1ncnc1[C@H]1c2n[nH]c(=O)c3cc(F)cc(c23)N[C@@H]1c1ccc(F)cc1 + CC[C@@]1(O)C(=O)OCc2c1cc1n(c2=O)Cc2cc3c(CN(C)C)c(O)ccc3nc2-1

>  <units.of.measure>
%

>  <meas.value>
25.2

$$$$
>  <compound>
O=C(c1cc(Cc2n[nH]c(=O)c3ccccc23)ccc1F)N1CCN(C(=O)C2CC2)CC1 + COc1cc2c(cc1O)CCNC21CSC2c3c(OC(C)=O)c(C)c4c(c3C(COC1=O)N1C(O)C3Cc5cc(C)c(OC)c(O)c5C(C21)N3C)OCO4

>  <units.of.measure>
%

>  <meas.value>
0.19

$$$$
>  <compound>
Cc1sc2c(c1C)C(c1ccc(Cl)cc1)=NC(CC(=O)Nc1ccc(O)cc1)c1nnc(C)n1-2 (stereo not drawn) + COc1cc2c(cc1O)CCNC21CSC2c3c(OC(C)=O)c(C)c4c(c3C(COC1=O)N1C(O)C3Cc5cc(C)c(OC)c(O)c5C(C21)N3C)OCO4

>  <units.of.measure>
%

>  <meas.value>
0.16

$$$$
>  <compound>
O=C(c1cc(Cc2n[nH]c(=O)c3ccccc23)ccc1F)N1CCN(C(=O)C2CC2)CC1 + CC[C@@]1(O)C(=O)OCc2c1cc1n(c2=O)Cc2cc3c(CN(C)C)c(O)ccc3nc2-1

>  <units.of.measure>
%

>  <meas.value>
96.9

$$$$
>  <compound>
CNCc1ccc(-c2cc(-c3nc(-c4ccc(S(=O)(=O)C(C)C)cc4)cnc3N)on2)cc1 + COc1cc2c(cc1O)CCNC21CSC2c3c(OC(C)=O)c(C)c4c(c3C(COC1=O)N1C(O)C3Cc5cc(C)c(OC)c(O)c5C(C21)N3C)OCO4

>  <units.of.measure>
%

>  <meas.value>
0.23

$$$$
>  <compound>
Cn1ncnc1[C@H]1c2n[nH]c(=O)c3cc(F)cc(c23)N[C@@H]1c1ccc(F)cc1 + COc1cc2c(cc1O)CCNC21CSC2c3c(OC(C)=O)c(C)c4c(c3C(COC1=O)N1C(O)C3Cc5cc(C)c(OC)c(O)c5C(C21)N3C)OCO4

>  <units.of.measure>
%

>  <meas.value>
0.28

$$$$
>  <compound>
CNCc1ccc(-c2cc(-c3nc(-c4ccc(S(=O)(=O)C(C)C)cc4)cnc3N)on2)cc1 + CC[C@@]1(O)C(=O)OCc2c1cc1n(c2=O)Cc2cc3c(CN(C)C)c(O)ccc3nc2-1

>  <units.of.measure>
%

>  <meas.value>
2.3

$$$$
>  <compound>
Cc1sc2c(c1C)C(c1ccc(Cl)cc1)=NC(CC(=O)Nc1ccc(O)cc1)c1nnc(C)n1-2 (stereo not drawn) + CC[C@@]1(O)C(=O)OCc2c1cc1n(c2=O)Cc2cc3c(CN(C)C)c(O)ccc3nc2-1

>  <units.of.measure>
%

>  <meas.value>
7.67

$$$$

* * *

Parameter IC50: see the listing below.
- Test system: DMS 114 tumor spheroids, viability % test/control
- run.description: Anticancer human tumor DMS 114 cell line growth inhibition;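 note: spheroids exposed to compounds for 7 days before read-out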
- assay.conditions: curve of first compound; second compound 0.03 µM; spheroids with HUVEC and MSC

>  <compound>
COc1ccc([C@@H](O)c2cc(-c3ncnc4cc(N5CCOCC5)ccc34)c(F)cc2Cl)nn1 + CC[C@@]1(O)C(=O)OCc2c1cc1n(c2=O)Cc2cc3c(CN(C)C)c(O)ccc3nc2-1

>  <experimental.target>
DMS 114 tumor spheroids, viability % test/control

>  <IC50>
< 31.6 nM

$$$$
>  <compound>
Cn1ncnc1[C@H]1c2n[nH]c(=O)c3cc(F)cc(c23)N[C@@H]1c1ccc(F)cc1 + CC[C@@]1(O)C(=O)OCc2c1cc1n(c2=O)Cc2cc3c(CN(C)C)c(O)ccc3nc2-1

>  <experimental.target>
DMS 114 tumor spheroids, viability % test/control

>  <IC50>
< 9.49 nM

$$$$
>  <compound>
CC1COCCN1c1cc(-c2ccnn2C)c2ccnc(-c3ccn[nH]3)c2n1 (stereo not given) + CC[C@@]1(O)C(=O)OCc2c1cc1n(c2=O)Cc2cc3c(CN(C)C)c(O)ccc3nc2-1

>  <experimental.target>
DMS 114 tumor spheroids, viability % test/control

>  <IC50>
< 31.6 nM

$$$$
>  <compound>
[2H]c1nc(C)nc([2H])c1-c1cc(NC[C@@H](C)c2cccc3c(C(=O)NC)ccnc23)ncn1 + CC[C@@]1(O)C(=O)OCc2c1cc1n(c2=O)Cc2cc3c(CN(C)C)c(O)ccc3nc2-1

>  <experimental.target>
DMS 114 tumor spheroids, viability % test/control

>  <IC50>
< 31.6 nM

$$$$
>  <compound>
CC(C)n1c(=O)n(C)c2cnc3cc(F)c(-c4ccc(OCCCN5CCCCC5)nc4)cc3c21 + CC[C@@]1(O)C(=O)OCc2c1cc1n(c2=O)Cc2cc3c(CN(C)C)c(O)ccc3nc2-1

>  <experimental.target>
DMS 114 tumor spheroids, viability % test/control

>  <IC50>
< 31.6 nM

$$$$
